- experimentalTarget: hGIP-R (Homo sapiens, UniProt P48546)
- Construct: expressed in transfected cells; host or cells: HEK-293 clonal cell lines
- Sequence (P48546 22-466): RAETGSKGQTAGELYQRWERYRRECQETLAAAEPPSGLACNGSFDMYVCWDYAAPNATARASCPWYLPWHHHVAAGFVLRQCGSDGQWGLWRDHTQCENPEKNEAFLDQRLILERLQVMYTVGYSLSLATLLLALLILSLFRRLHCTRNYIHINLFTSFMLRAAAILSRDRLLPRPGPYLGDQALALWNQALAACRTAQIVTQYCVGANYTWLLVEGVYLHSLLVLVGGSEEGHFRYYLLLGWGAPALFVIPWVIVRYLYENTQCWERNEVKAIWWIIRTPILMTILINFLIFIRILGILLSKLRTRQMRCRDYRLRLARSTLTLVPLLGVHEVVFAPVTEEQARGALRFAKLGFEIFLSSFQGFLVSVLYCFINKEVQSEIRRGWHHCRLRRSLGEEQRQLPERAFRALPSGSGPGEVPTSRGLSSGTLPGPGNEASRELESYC
- procedureText: Functional hGIP-R Assay (cAMP formation, HTRF)
- Assay type: cell-based
- conditionSummary: cAMP efficacy; percent of maximal response to GIP(1-42)OH; 37° C., 0.1% bovine casein; arithmetic mean ± SEM
So I've got a bunch of compounds here, and I need their Emax values.
Record the result as a number with its unit.

compound	Emax
COc1ccc(-c2ccc([C@H]3C[C@@]34CCN([C@H](Cc3cnn(C(F)F)c3)C(=O)NC(C)(C)Cn3nc(C(F)(F)F)cc3-c3ccn(C5CC5)c(=O)c3)C4=O)c(C)n2)cn1	12.6%

Notebook: COc1cc2cc(-c3ccc([C@H]4C[C@@]45CCN([C@H](Cc4cnn(C(F)F)c4)C(=O)NC(C)(C)Cn4nc(C(F)(F)F)cc4-c4ccc(=O)n(C)c4)C5=O)cc3)cnc2nc1C (single isomer, unassigned; isomer 1) , Emax read as 8.43%

---

So I've got a bunch of molecules here, and I need their EC50 values.
- experimentalTarget: hGIP-R (Homo sapiens, UniProt P48546)
- Construct: expressed in transfected cells; host or cells: HEK-293 clonal cell lines
- procedureText: Functional hGIP-R Assay (cAMP formation, HTRF)
- Assay type: cell-based
- conditionSummary: cAMP potency; HEK-293 cells expressing hGIP-R; incubated at 37° C. in the presence of 0.1% bovine casein; geometric mean; read-out: Human GIP-R EC50, nM (SEM, n)
Give bare numbers, in nM.

Consider the reported EC50 for these molecules:
molecule	u	EC50
[2H]C([2H])([2H])n1cc(C[C@H](C(=O)NC(C)(C)Cn2nc(C(F)(F)F)cc2-c2cnc(C(C)(C)O)nc2)N2CC[C@@]3(C[C@@H]3c3ccc(-c4cnc5nn(C)cc5c4)cc3Cl)C2=O)cn1	nM	1.33
[2H]C([2H])([2H])n1cc(C[C@H](C(=O)NC(C)(C)Cn2nc(C(F)(F)F)cc2-c2ccc(C)nc2)N2CC[C@@]3(C[C@@H]3c3ccc(-c4cnc5nc(C6CC6)cn5c4)nc3C)C2=O)cn1	nM	0.996
CN(C(=O)[C@H]1C[C@@H]1c1ccc(-c2cnc3nn(C)cc3c2)cc1)[C@H](Cc1cnn(C)c1)C(=O)NC(C)(C)Cn1nc(C(F)(F)F)cc1-c1ccc[nH]c1=O	nM	93.5
Cc1cn2cc(-c3ccc(C4CC45CCN([C@H](Cc4cnn(C(F)F)c4)C(=O)NC(C)(C)Cn4nc(C(F)(F)F)cc4-c4cc(F)c(=O)n(C)c4)C5=O)c(C(F)F)c3)cnc2n1 (single isomer, unassigned; isomer 1)	nM	0.47
Cn1cc2cc(-c3ccc([C@H]4C[C@@H]4C(=O)N[C@H](Cc4cnn(C(F)F)c4)C(=O)NC(C)(C)Cn4nc(C(F)(F)F)cc4-c4cn[nH]n4)cc3)cnc2n1	nM	61.1
Cn1cc2cc(-c3ccc([C@H]4C[C@@]45CCN([C@H](Cc4cnn(C(F)F)c4)C(=O)NC(C)(C)Cn4nc(C(F)(F)F)cc4P(C)(C)=O)C5=O)c(Cl)c3)cnc2n1	nM	3.95

// for each molecule below, give its EC50
1. Cn1cc2cc(-c3ccc([C@H]4C[C@@]45CCN([C@H](Cc4cnn(C(F)F)c4)C(=O)NC(C)(C)Cn4nc(C(F)(F)F)cc4-c4ccc(=O)n(C)c4)C5=O)c(F)c3)cnc2n1
2. Cn1cc(C[C@@H](NC(=O)[C@H]2C[C@@H]2c2ccc(NC(=O)Nc3ccc(F)cc3)cc2)C(=O)NC(C)(C)Cc2ccc(F)cc2)cn1
3. Cn1cc(C[C@@H](NC(=O)[C@H]2C[C@@H]2c2ccc(-c3cnc4nc(C(F)(F)F)cn4c3)cc2)C(=O)NC(C)(C)Cn2nc(C(F)(F)F)cc2-n2ccnn2)cn1
4. Cc1nc(-c2cnc3nc(C4CC4)cn3c2)ccc1[C@H]1C[C@@]12CCN([C@H](Cc1cnn(C(F)F)c1)C(=O)NC(C)(C)Cn1nc(C(F)(F)F)cc1-c1cnc(C(C)(C)O)nc1)C2=O

Reply:
4.39
38.6
44.4
1.23

---

- experimentalTarget: hGIP-R (Homo sapiens, UniProt P48546)
- Construct: expressed in transfected cells; host or cells: HEK-293 clonal cell lines
- procedureText: Functional hGIP-R Assay (cAMP formation, HTRF)
- Assay type: cell-based
- conditionSummary: cAMP efficacy; percent of maximal response to GIP(1-42)OH; 37° C., 0.1% bovine casein; arithmetic mean ± SEM
So I've got a bunch of molecules here, and I need their Emax values.
One number for each entry, in %.

Consider the reported Emax for these molecules:
molecule	attributeMeasured	val
Cn1cc(C[C@@H](NC(=O)C2CC2c2ccc(-c3cnc4nn(C)cc4c3)s2)C(=O)NC(C)(C)Cn2nc(C(F)(F)F)cc2Br)cn1 (single isomer, unassigned; isomer 2)	Emax	99.7
Cn1cc(C[C@@H](NC(=O)[C@H]2C[C@@H]2c2ccc(NC(=O)Nc3ccc(F)cc3)cc2)C(=O)NC(C)(C)Cc2ccc(F)cc2)cn1	Emax	96.6
Cn1cc(C[C@@H](NC(=O)[C@H]2C[C@@H]2c2ccc(-c3cnc4nn(C)cc4c3)cc2)C(=O)NC(C)(C)Cn2nc(C(F)(F)F)cc2-c2ccc(=O)n(C)c2)cn1	Emax	123
Cn1cc(C[C@H](C(=O)NC(C)(C)Cn2nc(C(F)(F)F)cc2-c2ccc(=O)n(C)c2)N2CC[C@@]3(C[C@@H]3c3ccc(-c4cnc5nn(C)cc5c4)cc3)C2=O)cn1	Emax	110
Cn1cc2cc(-c3ccc([C@H]4C[C@@]45CCN([C@H](Cc4cnn(C(F)F)c4)C(=O)NC(C)(C)Cn4nc(C(F)(F)F)cc4-c4ccn(C6CC6)c(=O)n4)C5=O)c(Cl)c3)cnc2n1	Emax	71.7

// for each molecule below, give its Emax
1. Cn1cc(C[C@@H](NC(=O)[C@H]2C[C@@H]2c2ccc(-c3cnc4nn(C)cc4c3)cc2)C(=O)NC(C)(C)Cn2nc(C(F)(F)F)cc2-c2cnn(C)n2)cn1
2. CC(C)(Cn1nc(C(F)(F)F)cc1-c1cn[nH]n1)NC(=O)[C@@H](Cc1cnc2ncccn12)NC(=O)[C@H]1C[C@@H]1c1ccc(-c2cnc3nc(C(F)(F)F)cn3c2)cc1

Reply:
118
86.9

---

- experimentalTarget: hGIP-R (Homo sapiens)
- Construct: expressed in transfected cells; host or cells: HEK-293 clonal cell lines
- procedureText: Functional hGIP-R Assay (cAMP formation, HTRF)
- Type: cell-based
- conditionSummary: cAMP efficacy; percent of maximal response to GIP(1-42)OH; 37° C., 0.1% bovine casein; arithmetic mean ± SEM
So I've got a bunch of compounds here, and I need their Emax values.
One number for each entry, in %.

Consider the reported Emax for these compounds:
smilesEntry	experimentalTarget	Emax, %
Cn1cc(-c2cc(C(F)(F)F)nn2CC(C)(C)NC(=O)[C@@H](Cc2cnc3ncccn23)NC(=O)[C@H]2C[C@@H]2c2ccc(-c3cnc4nccn4c3)cc2)cn1	hGIP-R (Homo sapiens)	92.1
CN(C(=O)[C@H]1C[C@@H]1c1ccc(-c2cnc3nn(C)cc3c2)cc1F)[C@H](Cc1cnn(C)c1)C(=O)NC(C)(C)Cn1nc(C(F)(F)F)cc1-c1ccc(=O)n(C)c1	hGIP-R (Homo sapiens)	88.5
[2H]C([2H])([2H])n1cc(-c2cc(C(F)(F)F)nn2CC(C)(C)NC(=O)[C@@H](Cc2cnn(C(F)F)c2)N2CC[C@@]3(C[C@@H]3c3ccc(-c4cnc5nn(C)cc5c4)cc3)C2=O)ccc1=O	hGIP-R (Homo sapiens)	72.4
CC(C)(Cc1ccc(F)cc1)NC(=O)[C@@H](Cc1cnc2ncccn12)NC(=O)[C@H]1C[C@@H]1c1ccc(-c2cnc3nc(C(F)(F)F)cn3c2)cc1	hGIP-R (Homo sapiens)	71.1

// for each compound below, give its Emax
1. [2H]C([2H])([2H])n1cc(C[C@H](C(=O)NC(C)(C)Cn2nc(C(F)(F)F)cc2-c2cnc(C(C)(C)O)nc2)N2CC[C@@]3(C[C@@H]3c3ccc(-c4cnc5nn(C)cc5c4)cc3Cl)C2=O)cn1
2. [2H]C([2H])([2H])n1cc(C[C@H](C(=O)NC(C)(C)Cn2nc(C(F)(F)F)cc2-c2cnc(C(C)(C)O)nc2)N2CC[C@@]3(C[C@@H]3c3ccc(-c4cnc5nc(C)cn5c4)cc3Cl)C2=O)cn1

Reply:
85.5
84.6

// for each compound below, give its Emax
1. Cn1cc(C[C@@H](NC(=O)[C@H]2C[C@@H]2c2ccc(-c3cnc4nn(C)cc4c3)nc2C(F)(F)F)C(=O)NC(C)(C)Cn2cc(C(F)(F)F)cn2)cn1
2. Cn1cc(C[C@@H](NC(=O)[C@H]2C[C@@H]2c2ccc(-c3cnc4nccn4c3)cc2)C(=O)NC(C)(C)Cn2nc(C(F)(F)F)cc2-c2cn[nH]n2)cn1
3. Cn1cc(C[C@@H](NC(=O)[C@H]2C[C@@H]2c2ccc(-c3cnc4nn(C)cc4c3)cc2F)C(=O)NC(C)(C)Cn2nc(C(F)(F)F)cc2-c2cn[nH]n2)cn1
4. Cn1cc(C[C@@H](NC(=O)[C@H]2C[C@@H]2c2ccc(-c3cnc4nc(C(F)(F)F)cn4c3)cc2)C(=O)NC(C)(C)Cn2nc(C(F)(F)F)cc2-c2cn[nH]n2)cn1

Reply:
1. 109
2. 99.3
3. 115
4. 132
